Target: Human PDE4B1 (Homo sapiens (Human), UniProt Q07343, S133E/S654A/S659A/S661A)
Sequence (Q07343 122-736 S133E/S654A/S659A/S661A): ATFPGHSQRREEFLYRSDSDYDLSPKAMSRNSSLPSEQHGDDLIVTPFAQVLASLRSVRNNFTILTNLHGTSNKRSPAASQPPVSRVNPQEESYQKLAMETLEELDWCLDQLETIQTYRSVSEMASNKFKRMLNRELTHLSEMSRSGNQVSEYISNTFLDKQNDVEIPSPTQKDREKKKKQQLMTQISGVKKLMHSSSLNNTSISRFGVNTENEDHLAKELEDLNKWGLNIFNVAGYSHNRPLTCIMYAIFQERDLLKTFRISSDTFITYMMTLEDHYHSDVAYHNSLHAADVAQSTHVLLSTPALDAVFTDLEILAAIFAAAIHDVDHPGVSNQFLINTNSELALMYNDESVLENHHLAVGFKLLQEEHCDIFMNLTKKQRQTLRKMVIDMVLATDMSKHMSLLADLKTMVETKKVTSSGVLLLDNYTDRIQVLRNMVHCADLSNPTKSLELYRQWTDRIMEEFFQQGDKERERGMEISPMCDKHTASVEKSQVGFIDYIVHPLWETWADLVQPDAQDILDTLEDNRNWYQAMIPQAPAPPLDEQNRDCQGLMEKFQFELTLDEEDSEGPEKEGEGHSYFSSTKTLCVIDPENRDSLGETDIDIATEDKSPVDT
Experiment: PDE4B1 Scintillation Proximity Assay (SPA), inhibition of enzyme activity
Type: biochemical
Conditions: Table 9, geometric mean of 2-9 determinations unless otherwise indicated, read-out: Human PDE4B FL
Label Criterion met when IC50 < 7 nM; otherwise Criterion not met.

O=C1c2c(-c3ccc(Cl)cc3)c3ncccc3n2C[C@@H]2CCCN12    Criterion not met
O=C1c2c(-c3ccccc3)c3ncccc3n2CCN1C1CC1    Criterion not met
O=C1c2c(-c3ccc4c(c3)CCO4)c3ncccc3n2CCN1C1CC1    Criterion met
O=C1c2c(-c3ccc(Cl)cc3F)c3ncccc3n2CCN1C1CC1    Criterion met
O=C1c2c(-c3ccc4ncnn4c3)c3ncccc3n2CCN1C1CC1    Criterion not met
O=C1c2c(-c3cccc(F)c3)c3ncccc3n2CCN1C1CC1    Criterion met
CCCN1CCn2c(c(-c3ccc(Cl)cc3)c3ncccc32)C1=O    Criterion met
O=C1c2c(-c3ccc(Cl)c(F)c3)c3ncccc3n2CCN1c1ncccn1    Criterion not met
COc1ccc(-c2c3n(c4cccnc24)CCN(C2CC2)C3=O)cn1    Criterion met

###

Catalogue of compounds with associated pIC50
Biological target: human PDE4D3 (Homo sapiens (Human))
Sequence (Q08499 186-808): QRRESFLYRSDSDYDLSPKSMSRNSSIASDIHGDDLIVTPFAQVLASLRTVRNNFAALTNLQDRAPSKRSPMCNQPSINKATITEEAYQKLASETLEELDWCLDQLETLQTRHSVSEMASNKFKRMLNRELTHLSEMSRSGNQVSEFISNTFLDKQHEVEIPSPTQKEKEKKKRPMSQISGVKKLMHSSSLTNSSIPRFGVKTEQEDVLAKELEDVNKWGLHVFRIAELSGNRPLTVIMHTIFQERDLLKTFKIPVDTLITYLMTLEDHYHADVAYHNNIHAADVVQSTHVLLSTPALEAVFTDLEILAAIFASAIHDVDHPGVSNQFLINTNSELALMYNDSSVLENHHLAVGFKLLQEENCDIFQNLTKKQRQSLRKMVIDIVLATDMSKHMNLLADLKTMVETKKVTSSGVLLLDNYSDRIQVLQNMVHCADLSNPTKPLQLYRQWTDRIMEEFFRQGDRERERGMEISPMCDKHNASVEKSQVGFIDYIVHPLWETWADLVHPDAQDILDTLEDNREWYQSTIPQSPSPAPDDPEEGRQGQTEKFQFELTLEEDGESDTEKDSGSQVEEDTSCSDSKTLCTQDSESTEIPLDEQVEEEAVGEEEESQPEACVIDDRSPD
Assay: PDE4D3 Scintillation Proximity Assay (SPA), inhibition of enzyme activity
Type: biochemical
Details: Table 10, geometric mean of 2-9 determinations unless otherwise indicated, read-out: Human PDE4D FL
pIC50: −log10 of the molar value.
readout: pIC50

COc1ncc(-c2c3n(c4cncnc24)CCN(C2CC2)C3=O)cn1 [Example 89]    < 4.52
Cc1nc(-c2c3n(c4cccnc24)CCN(C2CC2)C3=O)cs1 [Example 88]    4.79
Cc1nccc(-c2c3n(c4cccnc24)CCN(C2CC2)C3=O)n1 [Example 81]    < 4.52
Cc1cccnc1-c1c2n(c3cccnc13)CCN(C1CC1)C2=O [Example 84]    < 4.52
Cn1ncc(Cl)c1-c1c2n(c3cccnc13)CCN(C1CC1)C2=O [Example 93]    < 4.52

###

Catalogue of molecules with associated pIC50
Biological target: Human PDE4B1 (Homo sapiens (Human), UniProt Q07343, S133E/S654A/S659A/S661A)
Assay: PDE4B1 Scintillation Proximity Assay (SPA), inhibition of enzyme activity
Format: biochemical
Settings: Table 9, geometric mean of 2-9 determinations unless otherwise indicated, read-out: Human PDE4B FL
pIC50: −log10 of the molar value. Counter-ions that a name gives are not always drawn.
readout: pIC50

O=C1c2c(-c3ccc(Cl)cc3)c3nccnc3n2CCN1C1CC1 [Example 18]    7.99
COc1c(F)cc(-c2c3n(c4nccnc24)CCN(C2CC2)C3=O)cc1F [Example 59]    8.01
Cc1ccc(-c2c3ncccc3n3ccn(C4CC4)c(=O)c23)c(C)c1 [Example 66]    8.16
O=C1c2c(-c3ccc(Cl)cc3)c3ncccc3n2C[C@H]2CCCN12 [Example 3, trifluoroacetate salt]    8.86

###

Molecular target: Human PDE4B1 (Homo sapiens (Human), UniProt Q07343, S133E/S654A/S659A/S661A)
Test: PDE4B1 Scintillation Proximity Assay (SPA), inhibition of enzyme activity
Type: biochemical
Settings: Table 9, geometric mean of 2-9 determinations unless otherwise indicated, read-out: Human PDE4B FL
pIC50: −log10 of the molar value.
readout: pIC50

O=C1c2c(-c3cc(F)c(Cl)cc3F)c3c(n2CCN1C1CC1)CCCO3 [Example 77]    9.08
COc1ccc(-c2c3n(c4cccnc24)CCN(C2CC2)C3=O)cc1F [Example 45]    8.24
O=C1c2c(-c3cnc4ccoc4c3)c3ncccc3n2CCN1C1CC1 [Example 64]    7.94
Cc1ccc(-c2c3n(c4cccnc24)CCN(C2CC2)C3=O)cc1C [Example 33]    8.22
